List of solubility kinetic values.
settings: buffer; pH 7.4; 200.0 µM
The answer is to be given in µg/mL; state only the numeric part.

**Query** // solubility kinetic lookup, key: O=C(/C=C/c1ccco1)NCC1OCCc2ccccc21 (configuration not stated)
**Result** 41.5

----------
settings: buffer; pH 7.4; 200.0 µM
List of solubility kinetic values.
The answer is to be given in µg/mL; state only the numeric part.

Completed entries (count: 5):
CC(C)=CCN1CCN(CC#Cc2ccccc2)CC1CCO (stereo not drawn): 37.9
O=C1NC2(CCCCCC2)C(=O)N1Cc1cccc(Cl)c1: 15.8
CN(CC(=O)Nc1ccc(F)cc1)C(=O)c1ccc(OCc2cn3ccccc3n2)cc1: 10.4
CCn1cc([N+](=O)[O-])c(=O)c2cc(F)c(N3CCOCC3)cc21: 13.5
CN1CCC2(CC1)N=C(c1ccc(F)cc1)C(=S)N2: 39.8

**Query** // solubility kinetic lookup, key: CCN(CC)Cc1c(O)ccc2c1O/C(=C\C=C\c1ccccc1)C2=O
**Result** 42.2

**Query** Moving on to the next compound: O=C(NC(=S)Nc1ccc(Br)cc1F)C1CCCCC1
**Result** 0.9

**Query** Moving on to the next compound: CC(NC(=O)CNC(=O)C1CCCCC1)c1cccc(Cl)c1 (stereo not drawn)
**Result** 42.6

**Query** Moving on to the next compound: Cc1ccccc1NC(=O)Nc1cnccn1
**Result** 12.4

**Query** Moving on to the next compound: COc1ccc(C(=O)NCCNC(=O)c2cnccn2)cc1
**Result** 37.1

**Query** Moving on to the next compound: CC(=O)c1ccc(OCC(=O)NC(=O)NC2CCCCC2)cc1
**Result** 9.3

**Query** Moving on to the next compound: O=C(c1cc2cc(F)ccc2[nH]1)N1CCC2(CC1)OCCO2
**Result** 20.2
